Entries and their kcat/Km
Substrate: C1O[C@@H]1[C@H]1CO1
Protocol: purified protein
Measurement Parameters: 5 mM GSH, 0.10 M Tris-HCl pH 7.7, 37 °C, 1 h
Number in M⁻¹ s⁻¹, nothing else.

Some proteins with recorded kcat/Km:
INSERT INTO measurements (protein, obs_value) VALUES
  ('human GST M1-1 (Homo sapiens) (protein) PMILGYWDIRGLAHAIRLLLEYTDSSYEEKKYTMGDAPDYDRSQWLNEKFKLGLDFPNLPYLIDGAHKITQSNAILCYIARKHNLCGETEEEKIRVDILENQTMDNHMQLGMICYNPEFEKLKPKYLEELPEKLKLYSEFLGKRPWFAGNKITFVDFLVYDVLDLHRIFEPKCLDAFPNLKDFISRFEGLEKISAYMKSSRFLPRPVFSKMAVWGNK', 56.7),
  ('human GST T1-1 (Homo sapiens) (protein) GLELYLDLLSQPCRAVYIFAKKNDIPFELRIVDLIKGQHLSDAFAQVNPLKKVPALKDGDFTLTESVAILLYLTRKYKVPDYWYPQDLQARARVDEYLAWQHTTLRRSCLRALWHKVMFPVFLGEPVSPQTLAATLAELDVTLQLLEDKFLQNKAFLTGPHISLADLVAITELMHPVGAGCQVFEGRPKLATWRQRVEAAVGEDLFQEAHEVILKAKDFPPADPTIKQKLMPWVLAMIR', 108);

In the following, a different protein is considered.
Item under review: human GST A1-1 (Homo sapiens) (protein) AEKPKLHYFNARGRMESTRWLLAAAGVEFEEKFIKSAEDLDKLRNDGYLMFQQVPMVEIDGMKLVQTRAILNYIASKYNLYGKDIKERALIDMYIEGIADLGEMILLLPVCPPEEKDAKLALIKEKIKNRYFPAFEKVLKSHGQDYLVGNKLSRADIHLVELLYYVEELDSSLISSFPLLKALKTRISNLPTVKKFLQPGSPRKPPMDEKSLEEARKIFRF . Reported kcat/Km?
63.3
